studySystem: T1, CD3 epsilon homodimer protein (UniProt P07766 23-126)
T1 construct: also called CD3 (CD3 epsilon)
T1 sequence (P07766 23-126): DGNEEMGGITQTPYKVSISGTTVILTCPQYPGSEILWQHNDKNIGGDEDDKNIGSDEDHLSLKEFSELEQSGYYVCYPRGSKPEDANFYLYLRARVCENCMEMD
procedureText: SPR Biacore T200, CD3e homodimer on chip, vs unaltered GLS3000 antibody
The reader will find reported ratio of amounts bound (Z=Y/X) values listed item by item below.
A bare number is all that is needed in reply.

Below, each entry is followed by its recorded ratio of amounts bound (Z=Y/X) result.
Value of ratio of amounts bound (Z=Y/X) reported for the binder GLS3000 N28H (antibody, name in Kabat numbering, V domains shown, one-arm IgG as m2) VH: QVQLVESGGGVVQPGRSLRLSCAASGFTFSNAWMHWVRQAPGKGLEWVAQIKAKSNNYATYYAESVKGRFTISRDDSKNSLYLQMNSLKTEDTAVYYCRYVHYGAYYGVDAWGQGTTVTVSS VL: DIVMTQSPLSLPVTPGEPASISCRSSQSLVHSHRNTYLHWYQQKPGQAPRLLIYKVSNRFSGVPDRFSGSGSGTDFTLKISRVEAEDVGVYYCGQGTQVPYTFGQGTKLEIK is 0.42

Value of ratio of amounts bound (Z=Y/X) reported for the binder GLS3000 L27bI (antibody, name in Kabat numbering, V domains shown, one-arm IgG as m2) VH: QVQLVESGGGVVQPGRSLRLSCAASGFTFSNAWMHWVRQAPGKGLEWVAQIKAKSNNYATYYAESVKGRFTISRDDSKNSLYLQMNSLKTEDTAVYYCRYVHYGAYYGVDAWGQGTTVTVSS VL: DIVMTQSPLSLPVTPGEPASISCRSSQSIVHSNRNTYLHWYQQKPGQAPRLLIYKVSNRFSGVPDRFSGSGSGTDFTLKISRVEAEDVGVYYCGQGTQVPYTFGQGTKLEIK is 1.19

Value of ratio of amounts bound (Z=Y/X) reported for the binder GLS3000 S27eL (antibody, name in Kabat numbering, V domains shown, one-arm IgG as m2) VH: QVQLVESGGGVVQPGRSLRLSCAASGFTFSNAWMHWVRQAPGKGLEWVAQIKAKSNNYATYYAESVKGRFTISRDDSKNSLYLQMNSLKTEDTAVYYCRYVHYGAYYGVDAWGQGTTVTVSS VL: DIVMTQSPLSLPVTPGEPASISCRSSQSLVHLNRNTYLHWYQQKPGQAPRLLIYKVSNRFSGVPDRFSGSGSGTDFTLKISRVEAEDVGVYYCGQGTQVPYTFGQGTKLEIK is 1.17

Value of ratio of amounts bound (Z=Y/X) reported for the binder GLS3000 G91S (antibody, name in Kabat numbering, V domains shown, one-arm IgG as m2) VH: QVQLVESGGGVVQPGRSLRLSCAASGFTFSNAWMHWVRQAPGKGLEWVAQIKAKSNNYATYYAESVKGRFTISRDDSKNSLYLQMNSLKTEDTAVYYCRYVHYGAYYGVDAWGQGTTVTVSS VL: DIVMTQSPLSLPVTPGEPASISCRSSQSLVHSNRNTYLHWYQQKPGQAPRLLIYKVSNRFSGVPDRFSGSGSGTDFTLKISRVEAEDVGVYYCGQSTQVPYTFGQGTKLEIK is 0.26

Value of ratio of amounts bound (Z=Y/X) reported for the binder GLS3000 Q27R (antibody, name in Kabat numbering, V domains shown, one-arm IgG as m2) VH: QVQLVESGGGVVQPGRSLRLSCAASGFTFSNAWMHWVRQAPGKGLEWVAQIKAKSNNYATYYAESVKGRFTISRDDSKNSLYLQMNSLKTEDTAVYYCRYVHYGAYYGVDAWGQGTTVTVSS VL: DIVMTQSPLSLPVTPGEPASISCRSSRSLVHSNRNTYLHWYQQKPGQAPRLLIYKVSNRFSGVPDRFSGSGSGTDFTLKISRVEAEDVGVYYCGQGTQVPYTFGQGTKLEIK is 1.19

Others:
Value of ratio of amounts bound (Z=Y/X) reported for the binder GLS3000 V94T (antibody, name in Kabat numbering, V domains shown, one-arm IgG as m2) VH: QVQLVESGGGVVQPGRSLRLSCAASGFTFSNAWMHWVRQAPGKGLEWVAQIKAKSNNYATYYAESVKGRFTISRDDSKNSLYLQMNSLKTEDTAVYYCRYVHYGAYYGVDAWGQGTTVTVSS VL: DIVMTQSPLSLPVTPGEPASISCRSSQSLVHSNRNTYLHWYQQKPGQAPRLLIYKVSNRFSGVPDRFSGSGSGTDFTLKISRVEAEDVGVYYCGQGTQTPYTFGQGTKLEIK is 0.93

Value of ratio of amounts bound (Z=Y/X) reported for the binder GLS3000 N53D (antibody, name in Kabat numbering, V domains shown, one-arm IgG as m2) VH: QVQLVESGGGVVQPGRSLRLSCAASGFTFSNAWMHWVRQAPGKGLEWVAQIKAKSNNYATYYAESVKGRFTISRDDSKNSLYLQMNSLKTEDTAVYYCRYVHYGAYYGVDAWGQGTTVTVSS VL: DIVMTQSPLSLPVTPGEPASISCRSSQSLVHSNRNTYLHWYQQKPGQAPRLLIYKVSDRFSGVPDRFSGSGSGTDFTLKISRVEAEDVGVYYCGQGTQVPYTFGQGTKLEIK is 0.34

Value of ratio of amounts bound (Z=Y/X) reported for the binder GLS3000 T92E (antibody, name in Kabat numbering, V domains shown, one-arm IgG as m2) VH: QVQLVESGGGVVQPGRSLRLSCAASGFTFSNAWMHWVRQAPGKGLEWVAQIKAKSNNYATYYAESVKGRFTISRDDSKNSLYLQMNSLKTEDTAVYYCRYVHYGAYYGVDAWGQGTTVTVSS VL: DIVMTQSPLSLPVTPGEPASISCRSSQSLVHSNRNTYLHWYQQKPGQAPRLLIYKVSNRFSGVPDRFSGSGSGTDFTLKISRVEAEDVGVYYCGQGEQVPYTFGQGTKLEIK is 0.17

Value of ratio of amounts bound (Z=Y/X) reported for the binder GLS3000 S25M (antibody, name in Kabat numbering, V domains shown, one-arm IgG as m2) VH: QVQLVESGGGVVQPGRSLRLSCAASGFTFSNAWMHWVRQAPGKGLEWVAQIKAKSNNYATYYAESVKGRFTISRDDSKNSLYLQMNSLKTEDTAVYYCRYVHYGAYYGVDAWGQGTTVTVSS VL: DIVMTQSPLSLPVTPGEPASISCRMSQSLVHSNRNTYLHWYQQKPGQAPRLLIYKVSNRFSGVPDRFSGSGSGTDFTLKISRVEAEDVGVYYCGQGTQVPYTFGQGTKLEIK is 0.31

Value of ratio of amounts bound (Z=Y/X) reported for the binder GLS3000 N30S (antibody, name in Kabat numbering, V domains shown, one-arm IgG as m2) VH: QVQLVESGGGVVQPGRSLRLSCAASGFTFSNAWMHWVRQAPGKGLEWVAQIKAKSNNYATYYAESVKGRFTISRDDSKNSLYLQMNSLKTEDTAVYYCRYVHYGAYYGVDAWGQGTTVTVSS VL: DIVMTQSPLSLPVTPGEPASISCRSSQSLVHSNRSTYLHWYQQKPGQAPRLLIYKVSNRFSGVPDRFSGSGSGTDFTLKISRVEAEDVGVYYCGQGTQVPYTFGQGTKLEIK is 0.29
